- System: BT-549 breast
- EXPERIMENT_DESCRIPTION: NCI tumour cell line growth inhibition, 48 h
Classification field. Basis: TGI. Definitions: I (below 10 µM), II (10 µM to below 50 µM), III (50 µM or more)

See these solved cases before continuing.
>>> class_label("O=C1OCC2OC(=O)c3cc(O)c(O)c(O)c3-c3c(O)c(O)c(O)c4c3C(=O)OC(C2OC(=O)c2cc(O)c(O)c(O)c2-c2c1cc(O)c(O)c2O)C1OC(=O)C2C4=C(O)C(=O)C23Oc2cc(O)c4c(c2[C@H]13)O[C@H](c1ccc(O)c(O)c1)[C@@H](O)C4 (some centres not stated)")
"III"
>>> class_label("O=C1c2c(Br)sc(Br)c2C(=O)C1(O)O")
"II"
>>> class_label("CS(=O)(=O)N1CC(CCl)c2ccc(O)cc21 (configuration not stated)")
"I"

Qu. Lab note: which band did CCOC(=O)C(Cc1ccc(O)cc1)Nc1nc(=O)c2c(=O)oc(Cl)cc2o1 (configuration not stated) land in?
Ans. II

Qu. Which TGI band matches Clc1nc(Cl)c2ncn(Cc3ccccc3Cn3cnc4c(Cl)nc(Cl)nc43)c2n1 ?
Ans. I

Qu. Band assignment needed for Cn1cc(-c2csc(-c3cn(C)c4ccc(F)cc34)n2)c2cnccc21 please.
Ans. I

Qu. Please classify: O=C(N[C@@H](Cc1coc2ccccc12)B(O)O)[C@@H]1C[C@H]2CC[C@@H]1O2
Ans. II

Qu. Consider O=[N+]([O-])c1ccc(Sc2c3ccccc3nc3ccccc23)cn1 . To which TGI class does it belong?
Ans. II

Qu. Any idea which band O=c1[nH]nc(Cc2ccc(Cl)cc2)n1/N=C/c1cccs1 is in?
Ans. III

Qu. Exam item: assign Cc1c2ccc3ccccc3c2c[n+]2ccccc12 to the correct category.
Ans. II

Qu. Which bin should I file COc1ccc(C2(CC(C)C)CCN(S(=O)(=O)c3ccc(C)cc3)C2)cc1OC (configuration not stated) under?
Ans. III

Qu. Exercise: read the entry c1ccc2c(c1)c1ccccc1c1ccccc21 and state which class it falls under.
Ans. III

Qu. Into which category would you place CCOC(=O)c1sc(NC(=O)COc2cccc(/C=C3\CCc4cc(OC)ccc4C3=O)c2)nc1C ?
Ans. III

Qu. State the band of CC(=O)NC1CONC1=O (configuration not stated)
Ans. III

Qu. Into which bin does this compound go? Cc1cc(NCCCCNc2ccnc3cc(Cl)ccc23)nc(Nc2ccc(C(=O)N3CCCCC3)cc2)n1
Ans. I

Qu. Consider O=C1/C(=C\c2cccc(Oc3ccccc3)c2)S(=O)(=O)C(c2ccccc2)N1c1cccc(Cl)c1 (configuration not stated) . To which TGI class does it belong?
Ans. III

====

- Test system: A549 NSCLC
- EXPERIMENT_DESCRIPTION: NCI tumour cell line growth inhibition, 48 h
EXPERIMENTAL_READOUT: TGI

Example entries and their recorded answers appear below.
>>> data_value("CCOC(=O)c1sc(NC(=O)COc2cccc(/C=C3\\CCc4cc(OC)ccc4C3=O)c2)nc1C")
"> 100 µM"
>>> data_value("CC(=O)O[C@]12CCCCCC1C1(O)C(O)CCCCC12 (some centres undefined)")
"> 100 µM"

Lab note: next compound to report on.
Qu. Can you share its TGI? I mean this compound: CCOC(=O)C(C)(c1c(C)[nH]c2ccccc12)c1c(C)[nH]c2ccccc12
Ans. 49.7 µM
